EXPERIMENT SUMMARY: Tanguay_ZF_120hpf_ActivityScore_legacy: (Legacy) Oregon State University Tanguay Lab 120 Hour Post-fertilization zebrafish Assay Score for Activity (AID 2283742);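 for AC50: dechorionated Tropical 5D wild-type zebrafish embryos held singly per well; static exposure from 6 hpf until 120 hpf at 28 °C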
The source made the active and inactive calls. Rule for the calls: active = hit-call score of the fitted dose curve at least 0.9, where 1 is the maximum; inconclusive = response in the unintended direction; inactive = score below 0.9.
REPORTED ENDPOINT: AC50

[[record]]
molecule = "CN1CSC(=S)N(C)C1"
reported_endpoint = "AC50"
measurement = "29.6 nM (active)"

[[record]]
molecule = "O=C(NC(=O)c1c(F)cccc1F)Nc1ccc(OC(F)(F)C(F)OC(F)(F)F)c(Cl)c1 (centres undefined)"
reported_endpoint = "AC50"
measurement = "inactive"

[[record]]
molecule = "CCOC1Oc2ccc(OS(C)(=O)=O)cc2C1(C)C (centres undefined)"
reported_endpoint = "AC50"
measurement = "inactive"

[[record]]
molecule = "O=C(O)COc1ccc(Cl)cc1Cl"
reported_endpoint = "AC50"
measurement = "inactive"

[[record]]
molecule = "CCN(CC)C(=O)SCc1ccc(Cl)cc1"
reported_endpoint = "AC50"
measurement = "inactive"

[[record]]
molecule = "Clc1ccccc1-c1nnc(-c2ccccc2Cl)nn1"
reported_endpoint = "AC50"
measurement = "inactive"

[[record]]
molecule = "C[C@H]1[C@H](c2ccc(Cl)cc2)SC(=O)N1C(=O)NC1CCCCC1"
reported_endpoint = "AC50"
measurement = "inactive"

[[record]]
molecule = "CNC(=O)Oc1ccccc1OC(C)C"
reported_endpoint = "AC50"
measurement = "inactive"


Note: attention shifts to another entry.
Input line: Please give measured AC50 of the following entry: C#CCN1C(=O)COc2cc(F)c(N3C(=O)C4=C(CCCC4)C3=O)cc21
Output line: inactive
